Target: T1, GFP-9S library array, motif 4 ND N98A;D124C (synthetic construct, N98A;D124C)
T1 chain: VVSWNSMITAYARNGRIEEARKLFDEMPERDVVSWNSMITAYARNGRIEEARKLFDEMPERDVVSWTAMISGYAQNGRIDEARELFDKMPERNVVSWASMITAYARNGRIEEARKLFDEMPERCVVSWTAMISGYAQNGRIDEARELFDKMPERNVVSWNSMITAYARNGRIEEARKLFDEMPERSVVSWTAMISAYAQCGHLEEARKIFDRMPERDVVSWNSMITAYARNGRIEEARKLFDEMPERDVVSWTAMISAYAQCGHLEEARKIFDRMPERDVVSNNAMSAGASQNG
Test: high-throughput RNA pulldown from lysate on Ni-NTA beads; HRP: 50 mM Tris pH 8, 150 mM NaCl, 1 mM beta-mercaptoethanol, 50 ug/ml BSA, 3 ug/ml yeast RNA, 0.5% heparin; ITC and FP: Tris pH 8, 200 mM KCl, 5% glycerol; MST: 50 mM Tris pH 8, 200 mM NaCl, 1 mM DTT, BSA, heparin, 0.05% Tween 20
Conditions: tags: N-terminal His-eGFP; label: 5' Cy5
Readout: Kd
State the result as a value with its unit after it.

Binder	Kd
AUUACACGUGA (ssRNA) [Cy5-rpoA]	112 nM

Ask: Need Kd of AUUAGACGUGA (ssRNA) [Cy5-rpoA-G] , thanks.
Result: 73.1 nM

Every entry's value here was drawn from paper PMC8809517.
